In this section we review reported IC50 values for a set of compounds.
System: KB
assay.notes: Antiproliferative activity against human KB cells after 72 hrs by MTT assay
Type: functional, cell-based
Please report the result as a number followed by the unit.

Example entries and their recorded answers appear below.
# compound, IC50
measured = [
    ("C=C(c1ccc2c(ccn2C)c1)c1cc(NC)nc2ccccc12", "8 nM"),
    ("C=C(c1ccc2[nH]ccc2c1)c1cc(C)nc2ccccc12", "372 nM"),
]

IC50 for `C=C(c1ccc2c(ccn2C)c1)c1cc(OC)nc2ccccc12` is 84 nM

IC50 for `C=C(c1ccc2c(ccn2CO)c1)c1cc(C)nc2ccccc12` is 5 nM

IC50 for Cc1cc(C(C)c2ccc3c(ccn3C)c2)c2ccccc2n1 (stereo not given) is 109 nM
